target: gastrin receptors (guinea pig gastric glands) (Cavia porcellus); construct: The gastric glands were isolated from the tissue with a pipette; assay: Gastrin Receptor Binding Test in Guinea Pig Gastric Glands (Test Example 1); details: inhibition of specific 125I-gastrin I human binding (22.5 pM), 25° C., 45 min
Sequence (H0VZC5 1-426): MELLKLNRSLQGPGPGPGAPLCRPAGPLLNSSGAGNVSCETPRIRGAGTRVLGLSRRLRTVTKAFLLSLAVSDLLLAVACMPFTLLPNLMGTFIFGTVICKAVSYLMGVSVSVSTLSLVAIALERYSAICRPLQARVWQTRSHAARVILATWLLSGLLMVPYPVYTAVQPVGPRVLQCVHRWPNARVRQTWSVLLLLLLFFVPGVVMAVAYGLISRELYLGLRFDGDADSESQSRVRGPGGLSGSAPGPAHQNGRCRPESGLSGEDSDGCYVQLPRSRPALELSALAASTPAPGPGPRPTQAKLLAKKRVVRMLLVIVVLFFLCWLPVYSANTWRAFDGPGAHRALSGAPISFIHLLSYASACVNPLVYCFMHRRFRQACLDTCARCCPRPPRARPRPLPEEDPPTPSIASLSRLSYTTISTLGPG
Some compounds, each annotated with its measured pIC50.
// pIC50 here means minus log10 of the molar concentration (mol/L)

Guide cases for pIC50, answers given:
# compound, pIC50
records = [
    ("CCOC(CN1C(=O)C(CC(=O)Nc2ccc(F)cc2)(NC(=O)Nc2ccc(C)cc2)c2ccccc21)OCC (racemic)", 8.28),
    ("CCOC(CN1C(=O)C(CC(=O)Nc2ccc(C)cc2)(NC(=O)Nc2cccc(OC)c2)c2ccccc21)OCC (single isomer, unassigned; (+)) [Example 188]", 9.46),
    ("CCOC(CN1C(=O)C(NC(=O)Nc2ccc(C)cc2)(NC(=O)Nc2ccc(C)cc2)c2ccccc21)OCC", 8.60),
    ("CCOC(CN1C(=O)C(CC(=O)Nc2ccc(Cl)cc2)(NC(=O)Nc2ccc(OC)cc2)c2ccccc21)OCC (racemic)", 8.72),
    ("CCOC(CN1C(=O)C(CC(=O)Nc2ccc(OC)cc2)(NC(=O)Nc2cccc(OC)c2)c2ccccc21)OCC (racemic)", 8.96),
]

For this compound ( CCOC(CN1C(=O)C(CC(=O)Nc2ccc(OC)nc2)(NC(=O)Nc2ccc(C)cc2)c2ccccc21)OCC (racemic) [Example 143] ), measured pIC50 is 8.82

Please fill in: pIC50 reported for CCOC(CN1C(=O)C(CC(=O)Nc2ccc(C)cn2)(NC(=O)Nc2cccc(OC)c2)c2ccccc21)OCC (single isomer, unassigned; (+)) [Example 190] = 9.17

The measured pIC50 associated with CCOC(CN1C(=O)C(CC(=O)Nc2ccc(F)cc2)(NC(=O)Nc2ccc(F)cc2)c2ccccc21)OCC (racemic) reads 8.29

CCOC(CN1C(=O)C(CC(=O)Nc2ccc(C)cc2)(NC(=O)Nc2ccc(C#N)cc2)c2ccccc21)OCC (racemic) yielded pIC50 of 8.37

Note to self: pIC50 recorded for CCOC(CN1C(=O)C(CC(=O)Nc2cccc(C)c2)(NC(=O)Nc2cccc(OC)c2)c2ccccc21)OCC (racemic) was 8.68

Given item CCOC(CN1C(=O)C(CC(=O)Nc2ccc(N(C)C)cc2)(NC(=O)Nc2ccc(C)cc2)c2ccccc21)OCC (single isomer, unassigned; (+)) [Example 180] , the value recorded as its pIC50 is 8.34

# pIC50 (compound: CCOC(CN1C(=O)C(CC(=O)Nc2ccc(C)cc2)(NC(=O)Nc2cccc(Cl)c2)c2ccccc21)OCC (racemic) ) is 8.24

For record CCOC(CN1C(=O)C(CC(=O)Nc2ccc(Cl)cc2)(NC(=O)Nc2cccc(OC)c2)c2ccccc21)OCC (racemic) the listed pIC50 is 9.03

# compound CCOC(CN1C(=O)C(CC(=O)Nc2ccc(C)cc2)(NC(=O)Nc2ccc(F)cc2)c2ccccc21)OCC (racemic) ; its pIC50 = 8.21

* * *

biological target: CCK-B receptors (rat cerebral cortex) (Rattus norvegicus)
metric.name: IC50 (nM)
Record the value in nM, omitting the unit from your answer.

Below: 3 compounds and their reported IC50.
# compound, metric.name, unit.abbreviation, endpoint.value
rows = [
    ("CCOC(CN1C(=O)C(CC(=O)Nc2ccc(C)cc2)(NC(=O)Nc2ccc(C#N)cc2)c2ccccc21)OCC (racemic)", "IC50", "nM", 0.9),
    ("CCOC(CN1C(=O)C(NC(=O)Nc2ccc(C)cc2)(NC(=O)Nc2ccc(C)cc2)c2ccccc21)OC (racemic)", "IC50", "nM", 0.07),
    ("CCOC(CN1C(=O)C(CC(=O)Nc2cccc(C)c2)(NC(=O)Nc2ccc(C)cc2)c2ccccc21)OCC (racemic)", "IC50", "nM", 0.35),
]

Entry CCOC(CN1C(=O)C(CC(=O)Nc2ccc(C)cn2)(NC(=O)Nc2cccc(OC)c2)c2ccccc21)OCC (single isomer, unassigned; (+)) — recorded IC50 = 0.1

Value of measured IC50 for the entry CCOC(CN1C(=O)C(CC(=O)Nc2ccc(N(C)C)cc2)(NC(=O)Nc2ccc(C)cc2)c2ccccc21)OCC (racemic) : 2.3

CCOC(CN1C(=O)C(CC(=O)Nc2ccc(C)cn2)(NC(=O)Nc2ccc(C)cc2)c2ccccc21)OCC (racemic) [Example 138] has a reported IC50 of 0.5

* * *

pIC50: recorded values
Target: CCK-B receptors (rat cerebral cortex) (Rattus norvegicus)
Sequence (P30553 1-452): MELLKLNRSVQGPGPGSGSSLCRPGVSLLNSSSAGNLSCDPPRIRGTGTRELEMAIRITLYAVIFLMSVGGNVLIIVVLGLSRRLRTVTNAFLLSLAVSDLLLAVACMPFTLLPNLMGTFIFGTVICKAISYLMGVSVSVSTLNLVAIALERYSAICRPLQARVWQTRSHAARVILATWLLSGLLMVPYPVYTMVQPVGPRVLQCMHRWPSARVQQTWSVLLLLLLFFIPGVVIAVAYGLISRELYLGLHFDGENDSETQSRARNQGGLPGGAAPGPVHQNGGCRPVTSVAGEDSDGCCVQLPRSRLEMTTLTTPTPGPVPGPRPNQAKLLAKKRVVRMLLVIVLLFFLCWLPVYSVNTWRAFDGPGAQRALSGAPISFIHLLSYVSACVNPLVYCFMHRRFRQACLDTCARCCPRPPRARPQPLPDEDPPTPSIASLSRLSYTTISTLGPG
// returns pIC50 (minus log10 of molar concentration), number only

# molecule, target.or.system, pIC50
data = [
    ("CCOC(CN1C(=O)C(CC(=O)Nc2ccc(C)cn2)(NC(=O)Nc2ccc(C)cc2)c2ccccc21)OCC (single isomer, unassigned; (+)) [Example 179]", "CCK-B receptors (rat cerebral cortex) (Rattus norvegicus)", 9.85),
    ("CCOC(CN1C(=O)C(CC(=O)Nc2cccc(OC)c2)(NC(=O)Nc2ccc(C)cc2)c2ccccc21)OCC (racemic) [Example 129]", "CCK-B receptors (rat cerebral cortex) (Rattus norvegicus)", 9.41),
    ("CCOC(CN1C(=O)C(CC(=O)Nc2ccc(N(C)C)cc2)(NC(=O)Nc2cccc(OC)c2)c2ccccc21)OCC (racemic) [Example 156]", "CCK-B receptors (rat cerebral cortex) (Rattus norvegicus)", 8.55),
]

Input Cc1ccc(NC(=O)CC2(NC(=O)Nc3ccc(C)cc3)C(=O)N(Cc3ccccn3)c3ccccc32)cc1 (racemic) [Example 65] . Output pIC50: 9.12

* * *

Consider compounds characterized by their pIC50 with CCK-B receptors (rat cerebral cortex) (Rattus norvegicus, UniProt P30553).
Here pIC50 is given on a logarithmic scale as minus log10 of the concentration in mol/L.

# compound, metric.name, endpoint.value
records = [
    ("CCOC(CN1C(=O)C(CC(=O)Nc2ccc(OC)nc2)(NC(=O)Nc2ccc(C)cc2)c2ccccc21)OCC (single isomer, unassigned; (+))", "pIC50", 9.11),
    ("CCOC(CN1C(=O)C(CC(=O)Nc2ccc(C)cc2)(NC(=O)Nc2ccc(C)cc2)c2ccccc21)OCC (racemic)", "pIC50", 8.92),
]

Next compound, please.
Bench note, CCK-B receptors (rat cerebral cortex) (Rattus norvegicus, UniProt P30553): entry Cc1ccc(NC(=O)CC2(NC(=O)Nc3ccc(C)cc3)C(=O)N(Cc3ccccc3)c3ccccc32)cc1 (racemic) , its pIC50 = 8.92

* * *

test system: gastric acid secretion; test: Inhibitory Activity on Gastric Acid Secretion in Pylorus Ligated Rats (Test Example 2); assay type: in vivo, rat (Sprague-Dawley, male); conditions: Rattus norvegicus, intraduodenal, 10 mg/kg, i.d., 4 h
metric.name: inhibition in vivo at 10 mg/kg (%)
# value in %; strip the unit string

Example results:
# compound, target.or.system, unit.abbreviation, inhibition in vivo at 10 mg/kg
rows = [
    ("CCOC(CN1C(=O)C(CC(=O)Nc2ccc(N(C)C)cc2)(NC(=O)Nc2ccc(C)cc2)c2ccccc21)OCC (racemic) [Example 130]", "gastric acid secretion", "%", 71),
    ("CCOC(CN1C(=O)C(NC(=O)Nc2ccc(C)cc2)(NC(=O)Nc2ccc(C)cc2)c2ccccc21)OCC [Example 10]", "gastric acid secretion", "%", 59),
    ("CCOC(CN1C(=O)C(CC(=O)Nc2ccc(N(C)C)cc2)(NC(=O)Nc2cccc(OC)c2)c2ccccc21)OCC (racemic) [Example 156]", "gastric acid secretion", "%", 69),
    ("CCOC(CN1C(=O)C(CC(=O)Nc2ccc(F)cc2)(NC(=O)Nc2cccc(OC)c2)c2ccccc21)OCC (racemic) [Example 154]", "gastric acid secretion", "%", 59),
    ("CCOC(CN1C(=O)C(CC(=O)Nc2cccc(C)c2)(NC(=O)Nc2cccc(OC)c2)c2ccccc21)OCC (racemic) [Example 152]", "gastric acid secretion", "%", 64),
]

Note to self: inhibition in vivo at 10 mg/kg recorded for CCOC(CN1C(=O)C(CC(=O)Nc2ccc(C)c(C)c2)(NC(=O)Nc2ccc(C)cc2)c2ccccc21)OCC (racemic) [Example 122] was 62

Please fill in: inhibition in vivo at 10 mg/kg reported for CCOC(CN1C(=O)C(CC(=O)Nc2ccc(C)cn2)(NC(=O)Nc2cccc(OC)c2)c2ccccc21)OCC (single isomer, unassigned; (+)) [Example 190] = 70

Sure, the documented inhibition in vivo at 10 mg/kg for CCOC(CN1C(=O)C(CC(=O)Nc2ncccn2)(NC(=O)Nc2ccc(C)cc2)c2ccccc21)OCC (racemic) [Example 132] is 52

Measured inhibition in vivo at 10 mg/kg, CCOC(CN1C(=O)C(CC(=O)Nc2ccc(F)cc2)(NC(=O)Nc2ccc(C)cc2)c2ccccc21)OCC (racemic) [Example 124] : 54

Record summary for CCOC(CN1C(=O)C(CC(=O)Nc2ccc(N)cc2)(NC(=O)Nc2ccc(C)cc2)c2ccccc21)OCC (racemic) [Example 125] : reported inhibition in vivo at 10 mg/kg = 54

Consider CCOC(CN1C(=O)C(CC(=O)Nc2ccc(Cl)cc2)(NC(=O)Nc2ccc(OC)cc2)c2ccccc21)OCC (racemic) [Example 169] . Its measured inhibition in vivo at 10 mg/kg is 52

The reported value for CCOC(CN1C(=O)C(NC(=O)Nc2ccc(F)cc2)(NC(=O)Nc2ccc(F)cc2)c2ccccc21)OCC [Example 14] in terms of inhibition in vivo at 10 mg/kg is 49

Summary for this compound, CCOC(CN1C(=O)C(CC(=O)Nc2ccc(C)cc2)(NC(=O)Nc2ccc(C)cc2)c2ccccc21)OCC (single isomer, unassigned; (+)) [Example 174] : inhibition in vivo at 10 mg/kg is 70
